tested on: Plasmodium falciparum; assay: Antimalarial activity after 24 hrs against chloroquine-resistant Plasmodium falciparum W2 infected type A+ human erythrocytes by [3H]hypoxanthine uptake; format: functional; settings: read-out: ED50 (the source's name)
// thresholds for EC50 classes: lowest (below 0.02 µg/mL), middle (0.02 µg/mL to below 2 µg/mL), highest (2 µg/mL or more)

Answered examples (4):
| COMPOUND | EXPERIMENTAL_SYSTEM | LABEL_VALUE |
| --- | --- | --- |
| COc1ccc2c(c1O)-c1c(O)c(OC)cc3c1[C@H](C2)[N+](C)(C)CC3 | Plasmodium falciparum | highest |
| COc1c(O[C@@H]2O[C@H](CO)[C@@H](O)[C@H](O)[C@H]2O)cc2c3c1-c1ccccc1C[C@H]3NCC2 | Plasmodium falciparum | highest |
| COc1cc2c(cc1OC)CN1CCc3cc(OC)c(OC)c(O)c3[C@@H]1C2 | Plasmodium falciparum | middle |
| COc1cc2c(cc1O)-c1c3c(cc4c1[C@@H](C2)N(C)CC4)OCO3 | Plasmodium falciparum | highest |

Qu. Class label required: C[C@@H]1CC[C@H]2[C@@H](C)C(=O)O[C@@H]3O[C@@]4(C)CC[C@@H]1[C@]32OO4
Ans. lowest

Qu. Consider COc1cc2c(cc1OC)[C@@H]1Cc3ccc(O)c(OC)c3CN1CC2 . To which EC50 class does it belong?
Ans. middle

Qu. # bin lookup: classify COc1ccc2c(c1)C[C@H]1NCCc3cc4c(c-2c31)OCO4 by its EC50
Ans. highest

Qu. State the band of c1ccc2c(c1)C[C@H]1NCCc3cc4c(c-2c31)OCO4
Ans. middle

Qu. GET /class?item= OC(c1cc(C(F)(F)F)nc2c(C(F)(F)F)cccc12)C1CCCCN1 (configuration not stated)
Ans. lowest

Qu. Category lookup for the compound COc1cc2c(cc1OC)[C@@H]1Cc3ccc(OC)c(OC)c3C[N+]1(C)CC2.[Cl-] (some centres not stated)
Ans. highest

Qu. # bin label for COc1ccc2c(c1)C[C@@H]1c3c(cc4c(c3-2)OCO4)CCN1C
Ans. middle

Qu. Which EC50 band matches COc1ccc2c(c1O)C(Cc1ccc(O)cc1)[N+](C)(C)CC2.[Cl-] (racemic) ?
Ans. highest

Qu. Form field 'band' for COc1cc2c(cc1OC)CN1CCc3cc(OC)c(OC)cc3[C@@H]1C2
Ans. highest

Qu. Band of C=C[C@H]1CN2CC[C@H]1C[C@H]2[C@H](O)c1ccnc2ccc(OC)cc12 ?
Ans. middle

Qu. Tag the class for COc1cc2c(cc1OC)[C@@H]1Cc3ccc(OC)c(OC)c3CN1CC2 [TETRAHYDROPALMATINE]
Ans. highest

Qu. Lab note: sort CCN(CC)CCCC(C)Nc1ccnc2cc(Cl)ccc12 (configuration not stated) into the matching EC50 band.
Ans. lowest

Qu. # bin label for COc1ccc(C[C@H]2c3cc(O)c(OC)cc3CCN2C)cc1O [(S)-RETICULINE]
Ans. highest
